Origin of the recorded values: PubChem BioAssay (NCI)

Test system: HOP-62 NSCLC
Assay: NCI-60 one-dose screen, 48 h
Conditions: 10 µM unless noted
The panel holds about 83,000 compounds, 20% with a hit somewhere; the sample as a whole holds those more often. Activity calls are given as the source filed them. How the source made its calls: active means growth percent below 10; inactive means the rest.
// allowed return values: 1 (active), 0 (inactive)

Below are worked cases with known answers.
COc1cc(/C=C\c2cc(/C=C\c3ccc(O)c(OC)c3)n(C(=O)CNc3ccc(Cl)cc3)n2)ccc1O: 0
COc1ccc(Nc2ncc(C(N)=O)c(NCCCNC(=O)C3CCC3)n2)cc1: 0
COC(=O)/C(CCC=C(C)C)=C1\[C@@H](OC(C)=O)C[C@@]2(C)[C@H]1CC(=O)[C@H]1[C@@]3(C)CCC(N4CCCC4)[C@@H](C)[C@@H]3CC[C@@]12C (stereo not given in full): 0
CCN(CC)c1ccc(/C=C\c2cc(C)c3cc(C)ccc3n2)cc1: 0
COc1cc(-c2nc3ccc(C)cc3[nH]2)ccc1OCC(=O)N=Nc1c(O)[nH]c2ccc(Cl)cc12: 0

Please let me know the test result on file for CCN1C(=O)N(CC)C2C1NN=C1SCC(=O)N12 (stereo not given) .
0

Name the outcome recorded for `O=C(Nc1ccccc1O)c1ccccc1Nc1ccnc(C(F)(F)F)c1` in the assay.
0

What is the recorded call for this molecule in the test? `O=C(O)c1cccc(N/C=C/C(=O)c2cc3cc(Br)ccc3oc2=O)c1`
0

----------
System: 786-0 renal
Assay: NCI-60 one-dose screen, 48 h
Conditions: 10 µM unless noted
About 83,000 compounds went through this panel and 20% of them were active in at least one assay; those are over-represented in the sample as a whole. Activity calls are given as the source filed them. Rule for the calls: active = growth percent below 10; inactive = the rest.
Hi! Could you answer with just one of these? active, inactive

Query: recorded result category for `CC(=O)c1c(Nc2ccc(F)c(F)c2F)[nH]c2c(F)cc(F)cc2c1=O` in this test
inactive

// return assay outcome for `C[C@@H]1O[C@@H](O[C@@H]2C[C@H](c3ccc4c(c3O)C(=O)C3=C(C4=O)[C@@]4(O)C(=O)C[C@](C)(O)C[C@@]4(O)C=C3)O[C@H](C)[C@H]2O)C[C@H](O)[C@@H]1O`
inactive

Assay result, entry `O=C1/C(=C/c2ccccc2[N+](=O)[O-])COc2ccc(O)cc21` — outcome?
active

Test call for this compound, please: CC1(C)O[C@H]2OC3CCC(=O)CC3(O)[C@H]2O1 (some centres undefined)
inactive

----------
Please go through the items and note down their growth.
System: 786-0 renal
Assay: NCI-60 one-dose screen, 48 h (100 = growth as untreated, 0 = no growth, -100 = all killed)
Details: 10 µM unless noted
About 83,000 compounds went through this panel and 20% of them were active in at least one assay; those are over-represented in the sample as a whole.
Numbers only, in %.

Before answering, review these 4 worked examples.
CC[C@H](CC[C@@H](C)[C@H]1CC[C@H]2[C@@H]3CC[C@@H]4CC(=O)/C(=C\c5ccncc5)C[C@]4(C)[C@H]3CC[C@]12C)C(C)C: 95.7
COc1ccc2c(c1)c(-c1cc(-c3cn(C)c4ccc(OC)cc34)on1)cn2C: 102
COc1cccc(/C=C/C(=O)c2cc3c(N)c(C(=O)Nc4ccccc4C)sc3nc2C)c1: 9.79
COP(=O)(OC)c1nnn(-c2cccc([N+](=O)[O-])c2)c1C: 103

Query (compound): `N=C(N)c1ccc(-c2ccc(-c3ccc(Cl)cc3Cl)s2)cc1F` ; field requested: growth
-78.8
